Cited source: patent US5783703A

experiment: Oral absorption study in mice; format: in vivo, mice of ddY strain; conditions: mouse, 100 mg/kg, plasma, for (32) and (33) shown as Compound (28)
test_readout: Cmax (ng/mL)

* C[C@@H](O)[C@H]1C(=O)N2C(C(=O)O)=C(SC3CN(C4=NCCS4)C3)[C@H](C)[C@H]12 | 3500

----------
test: In situ absorption from rat intestinal loop; format: in vivo, rats of Wistar strain; details: rat jejunal loop, 20 mg/kg; plasma; for (32) and (33) shown as Compound (28)
test_readout: AUC(0-t) at 2 h (ng·h/mL)

* C[C@@H](O)[C@H]1C(=O)N2C(C(=O)O)=C(SC3CN(C4=NCCS4)C3)[C@H](C)[C@H]12 | 1000

----------
assay: In situ absorption from rat intestinal loop; format: in vivo, rats of Wistar strain; settings: rat jejunal loop, 20 mg/kg; plasma; for (32) and (33) shown as Compound (28)
test_readout: Cmax

- C[C@@H](O)[C@H]1C(=O)N2C(C(=O)O)=C(SC3CN(C4=NCCS4)C3)[C@H](C)[C@H]12: 800 ng/mL
